Biological target: human PPARδ ligand-binding domain (Gal4 chimera) (Homo sapiens)
Construct: coding for the hinge region and LBD of the canonical isoform of the respective nuclear receptor; expressed in transfected cells; host or cells: HEK293T
Sequence (Q03181 211-439 limits assumed, stated change not applied): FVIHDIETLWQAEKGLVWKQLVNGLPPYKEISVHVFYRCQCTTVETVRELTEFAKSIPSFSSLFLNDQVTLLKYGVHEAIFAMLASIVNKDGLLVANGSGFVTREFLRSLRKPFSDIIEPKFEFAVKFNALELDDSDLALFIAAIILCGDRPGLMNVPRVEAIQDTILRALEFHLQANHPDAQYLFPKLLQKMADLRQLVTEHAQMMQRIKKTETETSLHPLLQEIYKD
Assay: Gal4 hybrid reporter gene assay, PPARδ
Type: cell-based
Details: Supplementary Table 1, chromene derivatives; mean ± SEM, n ≥ 2; read-out: PPAR EC50
Here the recorded log10 EC50 is given for each entry.
endpoint: log10 EC50 (log10 of the value in nM)

INSERT INTO results (compound, endpoint, meas_value) VALUES
  ('Cc1cccc2c1OCC(C(=O)Nc1ccccc1C(=O)Nc1cccc(CCC(=O)O)c1)=C2 [S8]', 'log10 EC50', 3.08),
  ('Cc1ccc2c(c1)OCC(C(=O)Nc1ccccc1C(=O)Nc1cccc(CCC(=O)O)c1)=C2 [S7]', 'log10 EC50', 3.04),
  ('O=C(O)CCc1cccc(NC(=O)c2ccccc2NC(=O)C2=C(Cl)c3ccccc3OC2)c1 [S2]', 'log10 EC50', 2.62),
  ('O=C(O)CCc1cccc(NC(=O)c2ccccc2NC(=O)C2=Cc3cc(Cl)ccc3OC2)c1 [S6]', 'log10 EC50', 3.20),
  ('O=C(O)CCc1cccc(NC(=O)c2ccccc2NC(=O)C2=Cc3cc(F)ccc3OC2)c1 [S5]', 'log10 EC50', 3.41),
  ('O=C(O)CCc1cccc(NC(=O)c2ccccc2NC(=O)C2=Cc3cccc(Cl)c3OC2)c1 [S9]', 'log10 EC50', 2.96),
  ('O=C(O)CCc1cccc(NC(=O)c2ccccc2NC(=O)C2=Cc3ccccc3OC2)c1 [S1]', 'log10 EC50', 3.08),
  ('COc1cccc2c1OCC(C(=O)Nc1ccccc1C(=O)Nc1cccc(CCC(=O)O)c1)=C2 [S10]', 'log10 EC50', 3.72),
  ('Cc1cccc2c1C=C(C(=O)Nc1ccccc1C(=O)Nc1cccc(CCC(=O)O)c1)CO2 [S3]', 'log10 EC50', 2.83),
  ('Cc1ccc2c(c1)C=C(C(=O)Nc1ccccc1C(=O)Nc1cccc(CCC(=O)O)c1)CO2 [S4]', 'log10 EC50', 3.18);
